Below, each entry is listed with its recorded inhibition.
target: Insulin receptor (Homo sapiens); conditions: at 0.1 µM;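 note: reported values are averages of replicate inhibition measurements against the insulin receptor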
Reply with just the number (in %).

mol=CCn1c(-c2nonc2N)nc2c(C#CC(C)(C)O)ncc(OCC3CCNCC3)c21 obs_value=2.75
mol=NS(=O)(=O)c1ccc(-c2ccc3c(NC(=O)C4CC4)n[nH]c3c2)cc1 obs_value=1.23
mol=Nc1nonc1-c1nc2cnccc2n1C1CCCCC1 obs_value=-0.54
mol=NC(=O)c1sc(-n2cnc3cc(C(F)(F)F)ccc32)cc1OCc1ccccc1Br obs_value=0.33
mol=CCn1c(-c2nonc2N)nc2c(C#CC(C)(C)O)nc(O[C@@H](CN)c3ccccc3)cc21 obs_value=1.17

Now for the molecule whose inhibition we want.
Consider COc1cc2c(cc1Nc1nc(Nc3ccsc3C(N)=O)c3cc[nH]c3n1)N(C(=O)CN(C)C)CCC2 . Its measured inhibition is 102
